Hi there, I'd appreciate the recorded pIC50 for every entry that follows.
Target: TYRO3 (Homo sapiens)
Sequence (Q06418 41-890): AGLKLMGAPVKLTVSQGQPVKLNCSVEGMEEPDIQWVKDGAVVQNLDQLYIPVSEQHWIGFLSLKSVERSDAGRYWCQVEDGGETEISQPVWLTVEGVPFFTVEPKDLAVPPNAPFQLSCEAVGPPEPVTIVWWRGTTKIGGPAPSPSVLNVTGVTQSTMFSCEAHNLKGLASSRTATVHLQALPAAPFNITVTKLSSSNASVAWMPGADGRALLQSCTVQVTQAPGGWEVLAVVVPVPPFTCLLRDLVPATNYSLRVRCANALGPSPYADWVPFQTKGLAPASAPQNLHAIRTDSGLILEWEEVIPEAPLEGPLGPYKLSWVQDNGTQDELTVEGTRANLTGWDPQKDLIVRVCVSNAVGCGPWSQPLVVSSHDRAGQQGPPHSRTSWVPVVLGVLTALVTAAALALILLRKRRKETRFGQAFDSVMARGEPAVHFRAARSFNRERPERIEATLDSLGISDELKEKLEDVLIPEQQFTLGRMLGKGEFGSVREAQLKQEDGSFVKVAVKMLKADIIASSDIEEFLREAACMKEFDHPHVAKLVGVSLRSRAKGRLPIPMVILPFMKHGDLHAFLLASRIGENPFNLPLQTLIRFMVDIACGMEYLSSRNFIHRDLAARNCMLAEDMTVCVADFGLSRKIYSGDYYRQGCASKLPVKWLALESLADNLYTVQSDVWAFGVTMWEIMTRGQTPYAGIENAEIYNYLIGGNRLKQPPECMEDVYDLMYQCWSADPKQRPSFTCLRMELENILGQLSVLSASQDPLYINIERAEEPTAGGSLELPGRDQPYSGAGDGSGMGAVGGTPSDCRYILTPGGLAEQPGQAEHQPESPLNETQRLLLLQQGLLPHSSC
pIC50: −log10 of the molar value.

Look up and report measured pIC50 (TYRO3 (Homo sapiens)) for the following compound: `COC[C@H](C)Nc1ncc2c([C@@H]3CCCN(C(C)=O)C3)cc([C@H]3CC[C@H](O)CC3)n2n1`
5.00 to 6.00

Look up and report measured pIC50 (TYRO3 (Homo sapiens)) for the following compound: COCC(C)Nc1ncc2c(-c3cccc(C(C)N4CCCC4)c3)cc(C3CCC(O)CC3)n2n1 (stereo not shown)
≥ 7.00

Look up and report measured pIC50 (TYRO3 (Homo sapiens)) for the following compound: `COC[C@H](C)Nc1ncc2c(-c3ccc(CN4CCOCC4)nc3)cc([C@H]3CC[C@H](O)CC3)n2n1`
≥ 7.00

Look up and report measured pIC50 (TYRO3 (Homo sapiens)) for the following compound: `COC[C@H](C)Nc1ncc2c(-c3cnn(C(C)(C)c4nnc(C)o4)c3)cc([C@H]3CC[C@H](O)CC3)n2n1`
≥ 7.00

Look up and report measured pIC50 (TYRO3 (Homo sapiens)) for the following compound: `COC[C@H](C)Nc1ncc2c(C3=C[C@H]4CCC(C3)N4C(C)=O)cc([C@H]3CC[C@H](O)CC3)n2n1`
≥ 7.00

Look up and report measured pIC50 (TYRO3 (Homo sapiens)) for the following compound: `C[C@@H](CC(F)(F)F)Nc1ncc2c(-c3cnn(C(C)(C)C(=O)C4COC4)c3)cc([C@H]3CC[C@@](C)(O)CC3)n2n1`
≥ 7.00

Look up and report measured pIC50 (TYRO3 (Homo sapiens)) for the following compound: `CCCCC[C@H](C)Nc1ncc2c(N3CCC(C(=O)O)CC3)cc([C@H]3CC[C@H](O)CC3)n2n1`
6.00 to 7.00
